Sourced from paper PMC9482650

biological target: DLG5_2, Q8TDM6; test: holdup assay; set-up: key: below the threshold = too weak to quantify, mostly under pKd 3.1 to 4; details: plain residues with an end cap or a label only (N-terminal biotin on a linker: ttds)
Sequence (Q8TDM6 714-800): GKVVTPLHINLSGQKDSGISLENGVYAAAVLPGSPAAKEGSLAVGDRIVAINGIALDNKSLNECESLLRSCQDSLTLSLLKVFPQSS
Property: pKd; scope: individual binders
Write the number on its own, no unit after it.

SRSRRRETAL [HPV33-E6, P06427] :: 4.78
KLVIKTETTV [RASSF6, Q6ZTQ3] :: 4.33
PSRDRKETSI [RALBP1, Q15311] :: 4.26

Continue with the next binder.
# binder SGGKRKETLV [NET1, Q7Z628] ; its pKd = 4.58
